Each record here notes measured normalized growth.
# test: chemical genetic growth profiling, strain panel (AID 1159580);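 further: tested at 20 µM; growth read once vehicle control cultures reached saturation at 30 °C; 1 = growth at the plate median or of vehicle wells; lower values mean less growth of the strain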
# condition_notes: S. cerevisiae deletion strains, growth OD, locus YPR111W, strain DBF20, hits give low values
Among all 5,500 compounds or so, about 2,000 (36%) were called active. Inconclusive results (about 18%) are left out. The list shows a part of the results.

// solved cases for normalized growth follow
compound	normalized growth
O=C(NNc1ccc(F)cc1F)c1sccc1Cl	0.953 (inactive)
CC(NC(=S)N/N=C\c1ccccc1O)c1ccccc1 (centres undefined)	0.983 (inactive)
c1ccc(-c2nnc(-c3ccccn3)nc2-c2ccccc2)cc1	0.885 (inactive)
O=C1Nc2ccccc2/C1=C\c1ccc(Cl)cc1	0.917 (inactive)
O=C1/C(=C/c2ccccn2)CCc2ccccc21	0.955 (inactive)
FC(F)(F)c1ccc(N2CCc3ccccc3C2)c(NC(=S)Nc2cc(Cl)cc(Cl)c2)c1	0.985 (inactive)
COc1ccccc1NC(=S)N/N=C\c1ccccc1O	0.978 (inactive)
CC(C)(C)NC(=S)N/N=C\c1ccccc1O	0.949 (inactive)

For record COc1cc(Br)cc(C=Nc2ccc(Sc3ccccc3)nc2Sc2ccccc2)c1O the listed normalized growth is 0.939 (inactive)

---

Measured normalized growth values are reported for all entries that follow.
# test: chemical genetic growth profiling, strain panel (AID 1159580)
# condition_notes: S. cerevisiae deletion strains, growth OD, locus YNL233W, strain BNI4, hits give low values
The whole screen tested about 5,500 compounds, of which about 2,000 (36%) were called active. Another 18% or so got no clear call; they are omitted. Some of the results follow.

compound	recorded_measurement
Cc1[nH]ccc2c1[nH]c1cc(=O)ccc12	1.01 (inactive)

Measured normalized growth of Oc1cc2c(cc1O)C1c3ccc(O)c(O)c3OCC1(O)C2 (centres undefined) : 0.911 (inactive)

get_value(item= CC(=O)Oc1ccc2c(c1OC(C)=O)OCC1(O)Cc3c(cc(OC(C)=O)c(OC(C)=O)c3OC(C)=O)C21 (centres undefined) , readout=normalized growth) returns 1 (inactive)

Briefly, normalized growth measured for CC(C)(C)NCC(O)c1cc(Cl)c(N)c(Cl)c1 (centres undefined) : 1.01 (inactive)

---

# test: chemical genetic growth profiling, strain panel (AID 1159580);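 further: tested at 20 µM; growth read once vehicle control cultures reached saturation at 30 °C; 1 = growth at the plate median or of vehicle wells; lower values mean less growth of the strain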
# condition_notes: S. cerevisiae deletion strains, growth OD, locus YMR205C, strain PFK2
In all, about 5,500 compounds went through this assay and about 2,000 (36%) were called active. Not shown: some 18% with an inconclusive outcome. Rule as the data show it: active = normalized growth mostly below about 0.91 (no sharp cut-off); inconclusive = no clear call, values can overlap the other calls; inactive = mostly above about 0.92. The list shows a part of the results.
Please state which outcome applies, choosing from active, inactive

A selection of reference data follows.
compound	label_class
CO[C@@]1(NC(=O)C(C(=O)O)c2ccc(O)cc2)C(=O)N2C(C(=O)O)=C(CSc3nnnn3C)CO[C@@H]21 (some centres undefined)	inactive
COC(=O)[C@@]1(C)CCC[C@]2(C)c3ccc(O)c(C(C)C)c3CCC12 (some centres undefined)	active
O=c1c(O)c(-c2ccc(O)c(O)c2)oc2c(O)c(O)cc(O)c12	inactive
CCC(c1ccc(O)cc1)C(CC)c1ccc(O)cc1 (centres undefined)	active
COC(=O)[C@]1(C)CCC[C@]2(C)c3ccc(C(C)C)cc3C(=O)CC12 (some centres undefined)	inactive
CN(C)c1ccc2nc3ccc(=[N+](C)C)cc-3sc2c1	inactive
CCCCC1C(=O)N(c2ccccc2)N(c2ccc(O)cc2)C1=O (centres undefined)	inactive
C=C(C)[C@H]1COc2cc3oc(=O)ccc3cc2O1	active

Hi team, can someone confirm the assay call for CC(=O)Oc1ccc2c(c1C(C)C)CCC1C(C)(C)CCC[C@]21C (some centres undefined) ? inactive

How did this test come out for C[C@@H]1CC[C@@]2(OC1)OC1CC3C4CC=C5C[C@@H](O)CC[C@]5(C)C4CC[C@]3(C)C1[C@@H]2C (some centres undefined) ? inactive

Fill in: this test's call for CCC(N)C(O)c1ccc(O)c(O)c1 (centres undefined) is ___ inactive

---

# test: chemical genetic growth profiling, strain panel (AID 1159580);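 further: tested at 20 µM; growth read once vehicle control cultures reached saturation at 30 °C; 1 = growth at the plate median or of vehicle wells; lower values mean less growth of the strain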
# condition_notes: S. cerevisiae deletion strains, growth OD, locus YMR125W, strain sto1, hits give low values
The whole screen tested about 5,500 compounds, of which about 2,000 (36%) were called active. Inconclusive results (about 18%) are left out. The list shows a part of the results.
recorded_endpoint: normalized growth
No unit in the answer, please; the number alone is enough.

Example entries and their recorded answers appear below.
compound	normalized growth
CN[C@@H]1C(O)[C@@H](O[C@@H]2[C@@H](O)[C@H](O[C@H]3OC(CN)=CC[C@H]3N)[C@@H](N)C[C@H]2N)OC[C@]1(C)O (some centres undefined)	1
COc1ccc(-c2oc3c(CC=C(C)C)c(O[C@@H]4O[C@H](CO)[C@@H](O)[C@H](O)[C@H]4O)cc(O)c3c(=O)c2O[C@@H]2O[C@@H](C)[C@H](O)[C@@H](O)[C@H]2O)cc1	1.04
CCN[C@@H]1C[C@H](N)[C@@H](O[C@H]2OC(CN)=CC[C@H]2N)[C@H](O)[C@H]1OC1OC[C@](C)(O)[C@H](NC)[C@H]1O (some centres undefined)	1
O=C1C=C2C(=CCOC2O)O1 (centres undefined)	0.729
CC(=O)O[C@]1(C(C)=O)CCC2C3C=C(Cl)C4=CC(=O)[C@@H]5C[C@@H]5[C@]4(C)C3CC[C@@]21C (some centres undefined)	1.02
CCC(=O)c1c(O)cc(O)cc1O	0.985
CN(C)c1ccc2nc3ccc(=[N+](C)C)cc-3sc2c1	1.09
Oc1ccc2c(c1)OCC1(O)Cc3cc(O)c(O)cc3C21 (centres undefined)	1.04
CCOC(=O)c1c(C)cc(OC)cc1O	1
Cc1cc(OC(=O)c2c(C)cc(O)cc2O)cc(O)c1C(=O)O	0.992

// recorded normalized growth for CC(C)(C)NCC(O)c1cc(Cl)c(N)c(Cl)c1 (centres undefined) : 0.99

Measured normalized growth, CC(=O)Oc1ccc2c(c1OC(C)=O)OCC1(O)Cc3c(cc(OC(C)=O)c(OC(C)=O)c3OC(C)=O)C21 (centres undefined) : 0.989

The reported value for CCCCCCCCCCCC1=C(O)C(=O)C=C(O)C1=O in terms of normalized growth is 0.832

The measured normalized growth associated with COC(=O)c1c(C)cc(O)cc1O reads 1.02

The recorded normalized growth for CC(C)[N+](C)(CCC(C(N)=O)(c1ccccc1)c1ccccc1)C(C)C is 0.978

Form field normalized growth, entry C[C@]12CCC3c4ccc(O)cc4CCC3C1CC[C@@H]2O (some centres undefined) : 1.1

Reported normalized growth of CCOC(=O)c1c(C)cc(O)cc1O : 0.907

Per the records, this compound ( CCCC(C)(COC(N)=O)COC(=O)NC(C)C (centres undefined) ) has normalized growth equal to 0.975

normalized growth measured on O=c1ccc2cc(OC3OC(CO)C(O)C(O)C3O)c(O)cc2o1 (centres undefined) = 0.92

Value of measured normalized growth for the entry Cc1cc(C2CCCCC2)n(O)c(=O)c1 : 0.0836

Kindly note the recorded normalized growth for NS(=O)(=O)c1cc(C2(O)NC(=O)c3ccccc32)ccc1Cl (centres undefined) , which is 1.01

Input NC(N)=NC(=O)c1nc(Cl)c(N)nc1N . Output normalized growth: 1.02

Briefly, normalized growth measured for NC(=NCCC[C@H](N)C(=O)O)N[N+](=O)[O-] : 1.01

Data point: COC(=O)c1c(C)cc(OC)cc1O ; normalized growth = 0.993

---

// reported normalized growth per item
# test: chemical genetic growth profiling, strain panel (AID 1159580);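 further: tested at 20 µM; growth read once vehicle control cultures reached saturation at 30 °C; 1 = growth at the plate median or of vehicle wells; lower values mean less growth of the strain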
# condition_notes: S. cerevisiae deletion strains, growth OD, strain wtn01, hits give low values
Screen size: about 5,500 compounds; about 2,000 (36%) were called active. Another 18% or so got no clear call; they are omitted. The list shows a part of the results.
# output: bare number, no unit

molecule	recorded_measurement
CC(=O)OC1CN2CCC1CC2 (centres undefined)	1.01
CN1C[C@H](C(=O)N[C@]2(C)O[C@@]3(O)[C@@H]4CCCN4C(=O)[C@H](Cc4ccccc4)N3C2=O)C[C@@H]2c3cccc4[nH]cc(c34)C[C@H]21	0.965
CC(=O)Oc1ccc2c(c1OC(C)=O)OCC1(O)Cc3c(cc(OC(C)=O)c(OC(C)=O)c3OC(C)=O)C21 (centres undefined)	0.992

Value of measured normalized growth for the entry CCCCC1C(=O)N(c2ccccc2)N(c2ccc(O)cc2)C1=O (centres undefined) : 1

Recorded result, Oc1ccc2c(c1)OCC1(O)Cc3cc(O)c(O)cc3C21 (centres undefined) , normalized growth: 1.02

Documented normalized growth of CC1=CC(=O)C2=C(C)CC[C@@H]3[C@H](OC(=O)[C@H]3C)[C@@H]12 : 0.971

Measured normalized growth of C[C@@H]1CC[C@@]2(OC1)OC1CC3C4CC=C5C[C@@H](O)CC[C@]5(C)C4CC[C@]3(C)C1[C@@H]2C (some centres undefined) : 1.01

Just so you know, measured normalized growth for CC(CC(O)C1OC1(C)C)[C@@H]1CCC2(C)C3=CCC4C(C)(C)C(=O)CCC4(C)C3CC[C@@]12C (some centres undefined) came out at 1.02

The recorded normalized growth for entry CCC/C=C1\OC(=O)C2=C1CCC=C2 equals 0.965
